Data origin, for the record: patent US20240092835A1

# Test system: NKG2A+/NKG2C− NK cells
# ASSAY EXPLANATION: NK cell activation markers in NKG2A+/NKG2C- NK cells incubated with peptide and K562 expressing HLA-E (inhibition)
# Format: cell-based, human
# TEST CONDITIONS: NKG2A+/NKG2C- NK cells, K562/HLA-E, Trial 5
Where no end group is shown, it is not given here.
# key: entry, value: percentage of CCL3+ NK cells
Form entry: value (%) — number only.

> print(dat)
                             sequence.chain  units.symbol  recorded.number
1  VMPPRTLLL [human15, peptide HLA-A 3-11 derived from the human proteome]             %              3.7
2  TLPERTLYL [human7, peptide ECEL1 269-277 derived from the human proteome]             %             1.26
3             QMPSRSLLF [human1, QMPSRSLLF]             %             25.5
4  ILTDRSLWL [human4, peptide FBXO41 670-678 derived from the human proteome]             %             32.7
5            TAPARTMFL [human13, TAPARTMFL]             %             48.9

Which value of percentage of CCL3+ NK cells has been reported for TLPKRGLFL [human2, TLPKRGLFL] in the records? 29.3

Cool, now VMPGRTLCF [human11, peptide TACR3 226-234 derived from the human proteome] 2.68

Cool, now VLPHRTQFL [CMV1, novel CMV-derived peptide UL120 72-80, Merlin] 14.5

Cool, now FLPNRSLLF [human8, peptide SLC52A3 354-362 derived from the human proteome] 33.3

###

# TARGET OR TEST SYSTEM: CD94/NKG2C (Homo sapiens, UniProt P26717+Q13241)
# Sequence (P26717 94-231 limits assumed): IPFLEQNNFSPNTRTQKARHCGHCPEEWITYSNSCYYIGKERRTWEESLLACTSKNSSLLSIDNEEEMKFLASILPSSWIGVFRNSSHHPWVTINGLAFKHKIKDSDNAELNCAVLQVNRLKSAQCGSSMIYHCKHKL
# Sequence (Q13241 32-179 limits assumed): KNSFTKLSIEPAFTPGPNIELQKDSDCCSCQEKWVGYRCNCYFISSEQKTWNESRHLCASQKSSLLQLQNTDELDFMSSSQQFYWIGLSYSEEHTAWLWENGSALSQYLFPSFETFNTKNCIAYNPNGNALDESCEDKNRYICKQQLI
# ASSAY EXPLANATION: Steady-state surface plasmon resonance of peptide-HLA-E complex with CD94/NKG2C
# Type: binding
# TEST CONDITIONS: steady-state SPR; CD94/NKG2C analyte concentration 0.4 μM
# Procedure: Binding affinity of novel peptides linked to HLA-E was determined using surface plasmon resonance (SPR), a methodology used to study protein-protein interactions (Tables 15-19). […] KD values calculated by Biacore software are reported. Rmax, fit values were calculated by Biacore software. Rmax, theoretical values were calculated using the analyte/ligand mass ratio (0.66) multiplied by the amount of ligand coupled to the chip.
Where no end group is shown, it is not given here.
# key: entry, value: Binding of peptide-HLA-E complexes to CD94/NKG2C normalized to a theoretical Rmax
Lab note: record the figure alone, no unit after it.

Which value of Binding of peptide-HLA-E complexes to CD94/NKG2C normalized to a theoretical Rmax has been reported for QMPSRSLLF [human1, QMPSRSLLF] in the records? 0.023

###

# Test system: NKG2A+/NKG2C− NK cells
# ASSAY EXPLANATION: NK cell activation markers in NKG2A+/NKG2C- NK cells incubated with peptide and K562 expressing HLA-E (inhibition)
# Format: cell-based, human
# TEST CONDITIONS: NKG2A+/NKG2C- NK cells, K562/HLA-E, Trial 6
Where no end group is shown, it is not given here.
# key: entry, value: percentage of CD107a+ NK cells
Form entry: value (%) — number only.

Solved cases below.
> print(dat)
                             sequence.chain                 outcome.measure  recorded.number
1  ILTDRSLWL [human4, peptide FBXO41 670-678 derived from the human proteome]  percentage of CD107a+ NK cells             12.8
2             VNPGRSLFL [human5, VNPGRSLFL]  percentage of CD107a+ NK cells               26
3  VLPHRTQFL [CMV1, novel CMV-derived peptide UL120 72-80, Merlin]  percentage of CD107a+ NK cells             2.27
4  VMPPRTLLL [human15, peptide HLA-A 3-11 derived from the human proteome]  percentage of CD107a+ NK cells             0.52
5  FLPNRSLLF [human8, peptide SLC52A3 354-362 derived from the human proteome]  percentage of CD107a+ NK cells               20
6             QMPSRSLLF [human1, QMPSRSLLF]  percentage of CD107a+ NK cells             13.3
7  TLPERTLYL [human7, peptide ECEL1 269-277 derived from the human proteome]  percentage of CD107a+ NK cells             1.96
8  VMPGRTLCF [human11, peptide TACR3 226-234 derived from the human proteome]  percentage of CD107a+ NK cells             1.02

Record lookup: for NKG2A+/NKG2C− NK cells, what percentage of CD107a+ NK cells belongs to VMAPRTLIL [VMAPRTLIL (LIL), positive control peptide, reference compound] ? 0.92
